Origin of the recorded values: patent US12011444B2

# system_tested: PTRGER4 (EP4) (Homo sapiens (Human), UniProt P35408)
# Sequence (P35408 whole entry, looked up): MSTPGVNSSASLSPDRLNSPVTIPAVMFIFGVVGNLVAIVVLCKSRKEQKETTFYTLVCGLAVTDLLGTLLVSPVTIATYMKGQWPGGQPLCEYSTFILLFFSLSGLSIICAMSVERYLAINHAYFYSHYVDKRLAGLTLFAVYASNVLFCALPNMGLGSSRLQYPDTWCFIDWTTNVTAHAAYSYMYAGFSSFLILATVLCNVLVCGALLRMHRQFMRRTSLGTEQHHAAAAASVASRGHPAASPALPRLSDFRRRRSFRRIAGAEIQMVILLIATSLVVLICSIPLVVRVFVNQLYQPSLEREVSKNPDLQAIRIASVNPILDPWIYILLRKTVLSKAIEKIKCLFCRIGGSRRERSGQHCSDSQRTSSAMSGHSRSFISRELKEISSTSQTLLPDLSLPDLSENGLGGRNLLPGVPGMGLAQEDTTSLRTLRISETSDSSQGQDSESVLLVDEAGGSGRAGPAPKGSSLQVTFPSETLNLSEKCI
# protocol_summary: hEP4 b-arrestin assay (PathHunter HEK 293 PTGER4 b-arrestin cells)
# Type: cell-based
# run_parameters: hEP4 b-arrestin assay (values without asterisk)
Flag rule - IC50 less than 20 nM flags Satisfied; the remaining entries get Not satisfied.

[
  {
    "smiles_input": "CCOc1cc(-c2cc(NCCn3c(C#N)cc4c(OC)ccc(F)c43)ncn2)ccc1-c1noc(=O)[nH]1",
    "group": "Satisfied"
  }
]

Now, please, on to the next compound.
Request: # check: IC50 < 20 nM for `CCOc1cc(-c2cc(NCCn3c(C)cc4c(C)ccc(F)c43)ncn2)ccc1NCC(=O)O`
Result: Not satisfied

---

Please provide measured IC50 for the entries that follow.
# system_tested: EP4 (Homo sapiens (Human), UniProt P35408)
# Sequence (P35408 whole entry): as the sequence (P35408 whole entry, looked up) above
# protocol_summary: hEP4 cAMP assay (BT549 breast cancer cells, HTRF cAMP)
# Assay type: cell-based
# run_parameters: antagonistic activity; mean values where measured multiple times
Answers are plain numbers, in µM.

Use these answered entries as a reference point.
[
  {
    "molecule": "CCNc1cc(-c2cc(NCCn3c(C)cc4c(OC)cccc43)ncn2)ccc1-c1nnn[nH]1 [compound 667]",
    "IC50, µM": 0.017
  },
  {
    "molecule": "COc1ccc(F)c2c1cc(C)n2CCNc1cc(-c2ccc(-c3cnc(N)o3)cc2)ncn1 [compound 573]",
    "IC50, µM": 0.021
  },
  {
    "molecule": "CCS(=O)(=O)Nc1cc(-c2cc(NCCn3c(C)cc4c(C)ccc(F)c43)ncn2)ccc1C(=O)O [compound 602]",
    "IC50, µM": 0.805
  }
]

Lab note: next molecule to report on.
Request: Given the entry Cc1cc(F)cc2c1cc(C)n2CCNc1cc(-c2cc(Cl)c(C(=O)O)c(OCC(F)(F)F)c2)ncn1 [compound 723] , report its measured IC50.
Result: 0.287

---

For each of the compounds below, state its IC50.
# system_tested: PTGER2 (EP2) (Homo sapiens (Human), UniProt P43116)
# Sequence (P43116 whole entry): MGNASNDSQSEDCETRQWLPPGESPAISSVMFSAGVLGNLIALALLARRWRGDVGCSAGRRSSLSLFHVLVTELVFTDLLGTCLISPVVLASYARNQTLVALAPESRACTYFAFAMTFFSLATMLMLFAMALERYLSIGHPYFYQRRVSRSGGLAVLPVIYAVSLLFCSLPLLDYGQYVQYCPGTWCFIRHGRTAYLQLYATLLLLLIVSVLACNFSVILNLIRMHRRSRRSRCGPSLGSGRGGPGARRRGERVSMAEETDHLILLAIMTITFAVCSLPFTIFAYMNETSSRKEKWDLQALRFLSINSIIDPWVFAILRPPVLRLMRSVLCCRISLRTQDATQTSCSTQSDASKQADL
# protocol_summary: hEP2 b-arrestin assay (PathHunter HEK 293 PTGER2 b-arrestin cells)
# Type: cell-based
# run_parameters: antagonistic activity on hEP2; mean where measured multiple times
Note to self: number, then unit, no commentary.

[
  {
    "compound": "CNc1cc(-c2cc(NCCn3c(C)cc4c(F)ccc(OC)c43)ncn2)ccc1C(=O)O",
    "IC50": "57 nM"
  },
  {
    "compound": "CCC(C)c1cc(-c2cc(NCCn3c(C)cc4c(C)ccc(F)c43)ncn2)ccc1C(=O)O (racemic)",
    "IC50": "89 nM"
  },
  {
    "compound": "CCc1cc(-c2cc(NCCn3c(C)cc4c(OC)ccc(F)c43)ncn2)cc(Cl)c1C(=O)O",
    "IC50": "56 nM"
  }
]

Let us examine a further case.
Request: Can you share its IC50? I mean this compound: `Cc1ccc(F)c2c1cc(C)n2CCNc1cc(-c2cc(F)c(C(=O)O)s2)ncn1`
Result: 18 nM

---

# system_tested: PTGER2 (EP2) (Homo sapiens (Human))
# protocol_summary: hEP2 b-arrestin assay (PathHunter HEK 293 PTGER2 b-arrestin cells)
# Assay type: cell-based
# run_parameters: hEP2 b-arrestin assay (values without asterisk)
Record form. Attribute: pIC50. Fill in for each entry.
Answers are plain numbers, as −log10 of the molar value.

Observe how each entry below is paired with its result.
[
  {
    "smiles_input": "Cc1ccc(F)c2c1cc(C#N)n2CCNc1cc(-c2cc(F)c(C(=O)O)s2)ncn1",
    "pIC50": 7.74
  },
  {
    "smiles_input": "COc1ccc(F)c2c1cc(C#N)n2CCNc1cc(-c2cc3ccccc3[nH]2)ncn1",
    "pIC50": 7.92
  },
  {
    "smiles_input": "COc1ccc(F)c2c1cc(C#N)n2CCNc1cc(-c2cccc(CC(=O)O)c2)ncn1",
    "pIC50": 6.93
  }
]

Read the next record carefully.
Request: Reported pIC50, compound `CCOc1cc(-c2cc(NCCn3c(C)cc4c(OC)ccc(F)c43)ncn2)sc1/C=C/C(=O)O` : ____
Result: 8.30
